# SYSTEM_NAME: UniProtKB P28335
# Sequence (P28335 33-458, species assumed): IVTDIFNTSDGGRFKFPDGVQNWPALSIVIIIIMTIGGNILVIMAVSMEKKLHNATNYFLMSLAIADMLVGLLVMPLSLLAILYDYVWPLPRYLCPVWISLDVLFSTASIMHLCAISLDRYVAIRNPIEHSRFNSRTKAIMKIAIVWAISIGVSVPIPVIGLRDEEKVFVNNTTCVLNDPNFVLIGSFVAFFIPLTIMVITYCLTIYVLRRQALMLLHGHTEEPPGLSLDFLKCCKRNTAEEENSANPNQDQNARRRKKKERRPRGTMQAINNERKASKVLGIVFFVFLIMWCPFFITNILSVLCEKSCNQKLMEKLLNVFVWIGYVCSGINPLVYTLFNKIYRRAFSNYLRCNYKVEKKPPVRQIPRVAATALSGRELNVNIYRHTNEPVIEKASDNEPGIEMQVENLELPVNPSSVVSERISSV
# TEST_PROTOCOL: 5-HT2C [125I]DOI binding
# TEST_PARAMETERS: Table 3b; read-out: 5-HT2C [125I]DOI Ki ± SEM
PROPERTY_MEASURED: pKi
API: returns pKi as number; meaning -log10 of concentration in mol/L.

**Query** State, in one line, measured pKi of CCc1cc(Cl)c(OC)c(N2CCN(CC(F)CCNC(=O)c3cc4ccccc4o3)CC2)c1 (racemic) [Compound C4b]
**Result** 5.75

**Query** Give the value of pKi reported for the following: CCc1cccc(N2CCN(CC(F)CCNC(=O)c3cc4ccccc4[nH]3)CC2)c1Cl (racemic) [Compound C5a]
**Result** 6.24

**Query** State its pKi: CCc1cccc(N2CCN(CC(F)CCNC(=O)c3cc4ccccc4o3)CC2)c1Cl (racemic) [Compound C5b]
**Result** 6.33

**Query** Output measured pKi for this item: CCc1cccc(N2CCN(C[C@@H](O)CCNC(=O)c3cc4ccccc4[nH]3)CC2)c1Cl [(S)-19]
**Result** 5.95

**Query** Check the records and state pKi for CCc1cccc(N2CCN(C[C@H](O)CCNC(=O)c3cc4ccccc4[nH]3)CC2)c1Cl [(R)-19]
**Result** 7.30

**Query** Give a short answer stating reported pKi for CCc1cc(Cl)c(OC)c(N2CCN(C[C@@H](O)CCNC(=O)c3cc4ccccc4[nH]3)CC2)c1 [(S)-29] .
**Result** 5.25

**Query** Give the reported pKi for this molecule. CCc1cc(Cl)c(OC)c(N2CCN(C[C@H](O)CCNC(=O)c3cc4ccccc4[nH]3)CC2)c1 [(R)-29]
**Result** 5.90
